Data provenance is patent US20240400708A1.

Target: feline FcRn complex (FcRn-α subunit and β-microglobulin) (feline)
Test: SPR (Biacore), FcRn on SA chip, pH 7.4
measured.attribute: pKd
Just so you know, pKd here is -log10 of the concentration in molar units; reply with that number alone.

Prompt line: State the recorded pKd for this entry: feline IgG1a mutant ID No. 361: S252Y, S434R, D312P (antibody, part only; not given: Variable domains, not shown: another chain or arm of the molecule) constant: ASTTAPSVFPLAPSCGTTSGATVALACLVLGYFPEPVTVSWNSGALTSGVHTFPAVLQASGLYSLSSMVTVPSSRWLSDTFTCNVAHPPSNTKVDKTVRKTDHPPGPKPCDCPKCPPPEMLGGPSIFIFPPKPKDTLYISRTPEVTCLVVDLGPDDSDVQITWFVDNTQVYTAKTSPREEQFNSTYRVVSVLPILHQPWLKGKEFKCKVNSKSLPSPIERTISKAKGQPHEPQVYVLPPAQEELSRNKVSVTCLIKSFHPPDIAVEWEITGQPEPENNYRTTPPQLDSDGTYFVYSKLSVDRSHWQRGNTYTCSVSHEALHRHHTQKSLTQSPGK
Response line: 7.68
